STUDY_SYSTEM: prostaglandin E2-induced contractions of segments of guinea pig ileum (Cavia porcellus, UniProt A0A286XHJ6)
Construct: Segments of ileum about 2 cm long were then cut and mounted in a 10-mL tissue bath; from tissue; host or cells: guinea pig ileum segments
Sequence (A0A286XHJ6 1-405): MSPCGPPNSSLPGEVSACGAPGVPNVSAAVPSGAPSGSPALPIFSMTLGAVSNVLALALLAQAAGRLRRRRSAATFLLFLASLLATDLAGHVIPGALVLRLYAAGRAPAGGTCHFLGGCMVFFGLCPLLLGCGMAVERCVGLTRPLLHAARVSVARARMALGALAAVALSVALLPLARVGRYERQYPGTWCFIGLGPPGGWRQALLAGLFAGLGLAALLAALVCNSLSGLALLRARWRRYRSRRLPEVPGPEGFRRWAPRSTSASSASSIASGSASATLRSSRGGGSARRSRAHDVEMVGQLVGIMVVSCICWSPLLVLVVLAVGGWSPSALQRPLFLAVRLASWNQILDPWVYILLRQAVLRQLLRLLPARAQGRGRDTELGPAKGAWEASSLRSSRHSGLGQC
TEST_DETAILS: Prostaglandin (PGE) Antagonism Assay (guinea pig ileum)
Type: cell-based, male albino guinea pigs
EXPERIMENTAL_PARAMETERS: estimated from 3 micromolar (dose ratio ≥2) or Schild plot (dose ratio ≥5); 37° C.; read-out: PGE ANTAGONISM IN GUINEA PIG ILEUM (pA2) (converted)
Counter-ions that a name gives are not always drawn.
Catalogue of compounds with associated Kb

| COMPOUND | Kb |
| --- | --- |
| CCOC(=O)c1coc(CN2Cc3ccccc3Oc3ccc(Cl)cc32)n1 | 794 nM |
| O=C(O)c1csc(CN2Cc3ccccc3Oc3ccc(Cl)cc32)n1 [Example 20, sodium salt] | 7.94 nM |
| CCOC(=O)c1csc(CN2Cc3ccccc3Oc3ccc(Cl)cc32)n1 | 1580 nM |
| O=C(CCc1ccncc1)c1csc(N2Cc3ccccc3Oc3ccc(Cl)cc32)n1 [Example 32, monohydrochloride] | 631 nM |
| O=C(NCc1cccnc1)c1csc(N2Cc3ccccc3Oc3ccc(Cl)cc32)n1 [Example 37, hydrochloride] | 1000 nM |
| O=C(NCc1ccncc1)c1csc(CN2Cc3ccccc3Oc3ccc(Cl)cc32)n1 [Example 21, acetate, hydrochloride] | 794 nM |
| O=C(Nc1ccncc1)c1csc(N2Cc3ccccc3Oc3ccc(Cl)cc32)n1 [Example 28, hydrochloride] | 3160 nM |
| O=C(NCCc1ccncc1)c1coc(CN2Cc3ccccc3Oc3ccc(Cl)cc32)n1 [Example 14, hydrochloride, acetate] | 15.8 nM |

---

STUDY_SYSTEM: prostaglandin E2-induced contractions of segments of guinea pig ileum (Cavia porcellus)
Construct: Segments of ileum about 2 cm long were then cut and mounted in a 10-mL tissue bath; from tissue; host or cells: guinea pig ileum segments
Sequence (A0A286XHJ6 1-405): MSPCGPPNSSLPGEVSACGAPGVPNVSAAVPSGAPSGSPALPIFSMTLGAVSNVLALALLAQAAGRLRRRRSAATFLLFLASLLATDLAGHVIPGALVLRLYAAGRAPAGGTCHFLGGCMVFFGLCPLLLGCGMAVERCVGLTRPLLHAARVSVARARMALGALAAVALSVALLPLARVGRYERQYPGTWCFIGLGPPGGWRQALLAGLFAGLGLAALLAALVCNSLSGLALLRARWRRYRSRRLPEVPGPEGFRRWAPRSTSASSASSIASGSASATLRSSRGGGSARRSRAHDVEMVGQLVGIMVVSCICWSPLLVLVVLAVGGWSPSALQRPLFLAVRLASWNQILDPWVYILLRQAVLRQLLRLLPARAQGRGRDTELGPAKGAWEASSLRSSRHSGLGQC
TEST_DETAILS: Prostaglandin (PGE) Antagonism Assay (guinea pig ileum)
Assay type: cell-based, male albino guinea pigs
EXPERIMENTAL_PARAMETERS: estimated from 3 micromolar (dose ratio ≥2) or Schild plot (dose ratio ≥5); 37° C.; read-out: PGE ANTAGONISM IN GUINEA PIG ILEUM (pA2) (converted)
Counter-ions that a name gives are not always drawn.
Catalogue of compounds with associated Kb
MEASUREMENT_NAME: Kb (nM)

| COMPOUND | UNIT_OF_MEASURE | MEASURED_RESULT |
| --- | --- | --- |
| O=C(Nc1ccncc1)c1coc(CN2Cc3ccccc3Oc3ccc(Cl)cc32)n1 [Example 17, hydrochloride] | nM | 398 |
| O=C(NCc1ccncc1)c1coc(CN2Cc3ccccc3Oc3ccc(Cl)cc32)n1 [Example 11, monohydrochloride] | nM | 25.1 |
| OC(CCc1ccncc1)c1csc(N2Cc3ccccc3Oc3ccc(Cl)cc32)n1 (stereo not shown) [Example 34B, dihydrochloride] | nM | 1580 |
| OC(/C=C\c1ccncc1)c1csc(N2Cc3ccccc3Oc3ccc(Cl)cc32)n1 (stereo not shown) [Example 34A, hydrochloride] | nM | 794 |

---

STUDY_SYSTEM: prostaglandin E2-induced contractions of segments of guinea pig ileum (Cavia porcellus, UniProt A0A286XHJ6)
Construct: Segments of ileum about 2 cm long were then cut and mounted in a 10-mL tissue bath; from tissue; host or cells: guinea pig ileum segments
TEST_DETAILS: Prostaglandin (PGE) Antagonism Assay (guinea pig ileum)
Type: cell-based, male albino guinea pigs
EXPERIMENTAL_PARAMETERS: estimated from 3 micromolar (dose ratio ≥2) or Schild plot (dose ratio ≥5); 37° C.; read-out: PGE ANTAGONISM IN GUINEA PIG ILEUM (pA2) (converted)
Where a name gives a salt, the structure may show the parent alone.
# label = label 1 if Kb < 200 nM else label 0

| MOLECULE | ASSIGNED_CLASS |
| --- | --- |
| O=C(NCc1cccs1)c1coc(CN2Cc3ccccc3Oc3ccc(Cl)cc32)n1 | label 1 |
| Cl.O=C(NCc1ccncc1)c1csc(N2Cc3ccccc3Oc3ccc(Cl)cc32)n1 [Example 26, monohydrochloride] | label 0 |
| O=C(Nc1cncnc1)c1coc(CN2Cc3ccccc3Oc3ccc(Cl)cc32)n1 | label 0 |
| O=C(Nc1cccnc1)c1csc(N2Cc3ccccc3Oc3ccc(Cl)cc32)n1 [Example 29, hydrochloride] | label 0 |
| O=C(NCc1csc(N2Cc3ccccc3Oc3ccc(Cl)cc32)n1)c1ccncc1 [Example 36, hydrochloride] | label 0 |
| O=C(NCc1ccccn1)c1coc(CN2Cc3ccccc3Oc3ccc(Cl)cc32)n1 [Example 10, monohydrochloride] | label 1 |
| O=C(O)c1coc(CN2Cc3ccccc3Oc3ccc(Cl)cc32)n1 [Example 8A, sodium salt] | label 1 |
